- Target desc: HIV-1 protease (Human immunodeficiency virus type 1 group M subtype B)
- Test protocol: biochemical
- Cond: read-out: HIV-1 Protease % Inhib, dose 10.000 uM
# inhibition at 10 µM annotations
Quantity name: inhibition at 10 µM (%)

O=c1oc2ccccc2c(O)c1C1(c2ccccc2)CC1 [Example 142] ... 15.7
CCC(c1ccccc1)c1c(O)c2c(oc1=O)CCCCC2 (centres unmarked) [Example 110] ... 73.8
N#Cc1ccccc1S(=O)(=O)Nc1cccc(C(c2c(O)c3c(oc2=O)CCCCCC3)C2CC2)c1 (centres unmarked) [Example 339] ... 105
CCCC1CCCCCc2c1oc(=O)c([C@@H](c1ccccc1)C1CC1)c2O (mixture of isomers) [Example 232] ... 104
CCNC(=O)Nc1cccc(C(c2c(O)c3c(oc2=O)CCCCCC3)C2CC2)c1 (centres unmarked) [Example 223] ... 102
O=c1oc2c(c(O)c1C(c1cccc(NS(=O)(=O)c3ccc(Cl)c(Cl)c3Cl)c1)C1CC1)CCCCCC2 (centres unmarked) [Example 410] ... 96.8
O=c1oc2ccccc2c(O)c1CC(c1ccccc1)c1ccccc1 [Example 4, 4-Hydroxy-3-(2,2-diphenylethyl)-coumarin] ... 12.4
O=c1oc2c(c(O)c1C(c1cccc(NS(=O)(=O)c3cccc(Cl)c3Cl)c1)C1CC1)CCCCCC2 (centres unmarked) [Example 285] ... 97.7
CS(=O)(=O)Nc1cccc(C(c2c(O)c3c(oc2=O)CCCCC3)C2CC2)c1 (centres unmarked) [Example 364] ... 100
O=c1oc2c(c(O)c1C(c1cccc(NS(=O)(=O)c3cccc(C(F)(F)F)c3)c1)C1CC1)CCCCCC2 (centres unmarked) [Example 280] ... 110
CCC(c1ccccc1)c1c(O)c2ccc(Cl)cc2oc1=O (centres unmarked) [Example 92] ... 67.8
CC(C)CC(c1cccc(NS(=O)(=O)c2cn(C)cn2)c1)c1c(O)c2c(oc1=O)CCCCCC2 (centres unmarked) [Example 427] ... 89.6
O=c1oc2c(c(O)c1C(c1cccc(NS(=O)(=O)Cc3ccccc3)c1)C1CC1)CCCCCC2 (centres unmarked) [Example 321] ... 119
O=c1oc2c(c(O)c1C(c1cccc(NS(=O)(=O)c3cccc(CO)c3)c1)C1CC1)CCCCCC2 (centres unmarked) [Example 356] ... 102
CCCS(=O)(=O)Nc1cccc(C(c2c(O)c3c(oc2=O)CCCCCC3)C2CC2)c1 (centres unmarked) [Example 324] ... 116
CCC(=O)C1CCCCCc2c1oc(=O)c(C(c1ccccc1)C1CC1)c2O (centres unmarked) [Example 174] ... 104

---

# inhibition at 1.1 µM annotations
- Target desc: HIV-1 protease (Human immunodeficiency virus type 1 group M subtype B)
- Test protocol: biochemical
- Cond: read-out: HIV-1 Protease % Inhib, dose 1.100 uM
Quantity name: inhibition at 1.1 µM (%)

O=C(Nc1cccc(C(c2c(O)c3c(oc2=O)CCCCCC3)C2CC2)c1)c1ccc(F)cc1 (stereo not shown) [Example 210] ... 58.1
O=c1oc2c(c(O)c1C(c1cccc(NS(=O)(=O)c3cccc([N+](=O)[O-])c3)c1)C1CC1)CCCCCC2 (stereo not shown) [Example 274] ... 95.8
O=c1oc2c(c(O)c1C(c1cccc(NS(=O)(=O)c3cccc(S(=O)(=O)N4CCOCC4)c3)c1)C1CC1)CCCCCC2 (stereo not shown) [Example 411] ... 98.5
O=C(Nc1cccc(C(c2c(O)c3c(oc2=O)CCCCCC3)C2CC2)c1)c1ccccc1 (stereo not shown) [Example 211] ... 64.5
O=c1oc2c(c(O)c1C(c1cccc(NS(=O)(=O)c3ccc(N=Nc4ccccc4)cc3)c1)C1CC1)CCCCCC2 (stereo not shown) [Example 308] ... 82.3
CC(C)C(c1ccccc1)c1c(O)c2c(oc1=O)CCCCCC2 (stereo not shown) [Example 227] ... 81.1
O=c1oc2c(c(O)c1C(c1cccc(NS(=O)(=O)c3ccc([N+](=O)[O-])cc3)c1)C1CC1)CCCCCC2 (stereo not shown) [Example 273] ... 95.9

---

- Target desc: HIV-1 protease (Human immunodeficiency virus type 1 group M subtype B, UniProt P04585)
- Test protocol: biochemical
- Cond: HIV-1 FITC KI
hey, just use Condition met if measured Ki is less than 400 nM, otherwise Condition not met

CCC(c1cccc(NS(=O)(=O)CCNC(=O)OC(C)(C)C)c1)c1c(O)c2ccccc2oc1=O (stereo not shown) ... Condition not met
O=c1oc2ccccc2c(O)c1C(Cc1ccccc1)Cc1ccccc1 ... Condition met
O=c1oc2ccccc2c(O)c1C1CCN(Cc2ccccc2)c2ccccc21 (stereo not shown) ... Condition not met
CC(C)(C)OC(=O)NCCC(=O)Nc1cccc(C(c2c(O)c3ccccc3oc2=O)C2CC2)c1 (stereo not shown) ... Condition met
CC(C)(C)C(c1ccccc1)c1c(O)c2ccccc2oc1=O (stereo not shown) ... Condition not met
CCC(c1cccc(NS(=O)(=O)CC)c1)c1c(O)c2ccccc2oc1=O (stereo not shown) ... Condition not met

---

- Target desc: HIV-1 protease (Human immunodeficiency virus type 1 group M subtype B, UniProt P04585)
- Test protocol: biochemical
- Cond: read-out: HIV-1 FITC KI
pKi: −log10 of the molar value.
# pKi annotations
Quantity name: pKi

Nc1cccc(S(=O)(=O)Nc2cccc(C(c3c(O)c4c(oc3=O)CCCCCC4)C3CC3)c2)c1 (stereo not shown) ... 8.65
CC(C)C(c1cccc(N)c1)c1c(O)c2c(oc1=O)CCCCCC2 (stereo not shown) ... 8.13
CCC(O)C1CCCCCc2c1oc(=O)c(C(c1ccccc1)C1CC1)c2O (stereo not shown) ... 7.82
O=C(COCc1ccccc1)Nc1cccc(S(=O)(=O)Nc2cccc(C(c3c(O)c4c(oc3=O)CCCCCC4)C3CC3)c2)c1 (stereo not shown) ... 7.85
O=c1oc2c(c(O)c1C(c1cccc(NS(=O)(=O)c3cc(C(F)(F)F)cc(C(F)(F)F)c3)c1)C1CC1)CCCCCC2 (stereo not shown) ... 7.33
CCC(=O)C1CCCCCc2c1oc(=O)c(C(c1ccccc1)C1CC1)c2O (stereo not shown) ... 7.46
O=C(Cc1ccccc1)Nc1cccc(C(c2c(O)c3c(oc2=O)CCCCCC3)C2CC2)c1 (stereo not shown) ... 7.48

---

# inhibition at 30 µM annotations
- Target desc: HIV-1 protease (Human immunodeficiency virus type 1 group M subtype B, UniProt P04585)
- Test protocol: biochemical
- Cond: read-out: HIV-1 Protease % Inhib, dose 30.000 uM
Quantity name: inhibition at 30 µM (%)

O=c1oc2c(c(O)c1C(c1cccc(NS(=O)(=O)c3cccc(NS(=O)(=O)CCCCl)c3)c1)C1CC1)CCCCCC2 (stereo not shown) ... 102
O=c1oc2c(c(O)c1C(c1cccc(NS(=O)(=O)c3cccc(NCCO)c3)c1)C1CC1)CCCCCC2 (stereo not shown) ... 61.9
COCCC1CCCCCc2c1oc(=O)c(C(c1ccccc1)C1CC1)c2O (stereo not shown) ... 103
C=CS(=O)(=O)Nc1cccc(C(c2c(O)c3c(oc2=O)CCCCCC3)C2CC2)c1 (stereo not shown) ... 111
CCC(c1cccs1)c1c(O)c2c(oc1=O)CCCCCC2 (stereo not shown) ... 108
O=c1oc2c(c(O)c1C1(c3ccccc3)CCC1)CCCCCC2 ... 76.7
CCC(c1cccc(NS(=O)(=O)c2ccc(Cl)cc2)c1)c1c(O)c2c(oc1=O)CCCCCC2 (stereo not shown) ... 124
O=C(Nc1cccc(S(=O)(=O)Nc2cccc(C(c3c(O)c4c(oc3=O)CCCCCC4)C3CC3)c2)c1)c1ccccc1 (stereo not shown) ... 95.8
O=c1oc2c(c(O)c1C(c1ccccc1)C1CC1)CCCCCC2CC1CCCCO1 (stereo not shown) ... 112
O=C(Cc1ccccc1)Nc1cccc(C(c2c(O)c3c(oc2=O)CCCCCC3)C2CC2)c1 (stereo not shown) ... 78.7
O=c1oc2c(c(O)c1C(c1cccc(NS(=O)(=O)c3cccc(Br)c3)c1)C1CC1)CCCCCC2 (stereo not shown) ... 117
CCC(c1cccc(NS(=O)(=O)c2ccc(C#N)cc2)c1)c1c(O)c2c(oc1=O)CCCCCC2 (stereo not shown) ... 110
O=c1oc2c(c(O)c1C(c1cccc(NS(=O)(=O)c3cccc(CO)c3)c1)C1CC1)CCCCCC2 (stereo not shown) ... 100
CC(C)CC(c1cccc(NS(=O)(=O)c2cccc3cccnc23)c1)c1c(O)c2c(oc1=O)CCCCCC2 (stereo not shown) ... 84.2
O=c1oc2c(c(O)c1C(c1cccc(NS(=O)(=O)c3ccccc3C(F)(F)F)c1)C1CC1)CCCCCC2 (stereo not shown) ... 93.7
O=c1oc2c(c(O)c1C(c1cccc(NS(=O)(=O)c3c(F)c(F)c(F)c(F)c3F)c1)C1CC1)CCCCCC2 (stereo not shown) ... 110
